PROTOCOL_NOTES: Cytotoxicity against BALB/c mouse T cell after 24 hrs by trypan blue exclusion method
Format: cell-based
REPORTED_CONDITIONS: T cells
READOUT_KIND: CC50 at 24 h (µg/mL)
Write down the numeric answer in µg/mL and omit the unit.

{"SMI": "C=C1C(=O)O[C@@H]2[C@H]1CC[C@H](C)[C@]1(CCC(=O)O1)[C@@]2(C)O", "UNITS_TEXT": "µg/mL", "CC50 at 24 h": 25.7}

Then there is this compound:
## Task I have this compound here, C=C1C(=O)O[C@@H]2C[C@H](C)[C@]3(O)CCC(=O)[C@@]3(C)C[C@H]12 , and I need its recorded CC50 at 24 h.
## Result 35
